Entries and their measured Autosampler stability (24 h) Av. Accuracy (%) follow.
# METHOD DESCRIPTION: Stability of substrates and metabolites in quality control samples (benchtop, autosampler, freeze-thaw)
# Type: physicochemical
# EXPERIMENTAL PARAMETERS: QC conc. 60 ng/ml; 10° C for 24 hours in the autosampler
ENDPOINT: Autosampler stability (24 h) Av. Accuracy (%)

compound=O=C1Nc2c(O)cc(Cl)cc2[C@@](C#CC2CC2)(C(F)(F)F)O1 result=86,15%
compound="COc1ccc2[nH]c([S+]([O-])Cc3ncc(C)c(OC)c3C)nc2c1 (stereo not drawn) [omeprazol, omeprazole, reference compound]" result=111,22%
compound="COCCc1ccc(OCC(O)CNC(C)C)cc1 (stereo not drawn) [metoprolol, reference compound]" result=111,39%
compound="COCC(O)c1ccc(OCC(O)CNC(C)C)cc1 (stereo not drawn)" result=97,01%
compound=OCc1ncc2n1-c1ccc(Cl)cc1C(c1ccccc1F)=NC2 result=105,87%
compound="COc1ccc2nc([S+]([O-])Cc3ncc(CO)c(OC)c3C)[nH]c2c1 (stereo not drawn)" result=104,61%

###

# METHOD DESCRIPTION: Determination of PCB concentrations in plasma of HELPcB and control participants
# Assay type: in vivo
# EXPERIMENTAL PARAMETERS: human plasma; HELPcB group, N 10
Entries and their measured PCB plasma concentration, Geometric mean, HELPcB follow.
ENDPOINT: PCB plasma concentration, Geometric mean, HELPcB (ng/mL)

chemical_structure=Clc1ccc(-c2ccc(Cl)cc2Cl)cc1 numeric_readout=0.014
chemical_structure=Clc1ccc(-c2cc(Cl)c(Cl)cc2Cl)cc1 numeric_readout=0.086
chemical_structure=Clc1ccc(-c2ccc(Cl)c(Cl)c2Cl)cc1Cl numeric_readout=0.014
chemical_structure=Clc1ccc(-c2cc(Cl)c(Cl)c(Cl)c2Cl)cc1Cl numeric_readout=0.097
chemical_structure=Clc1ccc(-c2cc(Cl)c(Cl)cc2Cl)cc1Cl numeric_readout=0.075
chemical_structure=Clc1cc(Cl)c(-c2cc(Cl)c(Cl)c(Cl)c2)cc1Cl numeric_readout=0.027
chemical_structure=Clc1cc(-c2ccc(Cl)c(Cl)c2Cl)cc(Cl)c1Cl numeric_readout=0.016
chemical_structure=Clc1cc(Cl)c(-c2cc(Cl)c(Cl)cc2Cl)cc1Cl numeric_readout=0.919
chemical_structure=Clc1ccc(Cl)c(-c2cc(Cl)c(Cl)cc2Cl)c1 numeric_readout=0.005
chemical_structure=Clc1ccc(-c2cc(Cl)c(Cl)c(Cl)c2Cl)cc1 numeric_readout=0.008
chemical_structure=Clc1cc(Cl)c(-c2ccc(Cl)c(Cl)c2Cl)cc1Cl numeric_readout=0.672
chemical_structure=Clc1cc(Cl)c(-c2cc(Cl)c(Cl)c(Cl)c2Cl)cc1Cl numeric_readout=0.808
chemical_structure=Clc1cc(-c2cc(Cl)c(Cl)c(Cl)c2Cl)cc(Cl)c1Cl numeric_readout=0.014

###

# METHOD DESCRIPTION: Stability of substrates and metabolites in quality control samples (benchtop, autosampler, freeze-thaw)
# Assay type: physicochemical
# EXPERIMENTAL PARAMETERS: QC conc. 0,5 ng/ml; 10° C for 24 hours in the autosampler
ENDPOINT: Autosampler stability (24 h) Av. Accuracy (%)

compound=O=C1Nc2c(O)cc(Cl)cc2[C@@](C#CC2CC2)(C(F)(F)F)O1 result=86,73%
compound="COc1ccc2[nH]c([S+]([O-])Cc3ncc(C)c(OC)c3C)nc2c1 (centres unmarked) [omeprazol, omeprazole, reference compound]" result=114,94%
compound="COCC(O)c1ccc(OCC(O)CNC(C)C)cc1 (centres unmarked)" result=101,05%
compound="COc1ccc2nc([S+]([O-])Cc3ncc(CO)c(OC)c3C)[nH]c2c1 (centres unmarked)" result=112,52%
compound="COCCc1ccc(OCC(O)CNC(C)C)cc1 (centres unmarked) [metoprolol, reference compound]" result=105,36%

FYI, the data here is from paper PMC12477080.
